testName: Stability in human plasma/PBS 1:2 v/v
Type: in vitro ADME
protocolConditions: human blood plasma/PBS 1:2 v/v, pH 7.4, 37 °C, 24 h, read-out: % intact compound in plasma
Listing: remaining at 24 h, 80 μM of selected compounds
Kindly provide the numeric value in % only, without the unit symbol.

Q: Return remaining at 24 h, 80 μM for the following compound: CCC(=O)NCCCCNC(=O)NC(=N)NCCC[C@H](NC(=O)[C@@H]1CCCN1C(=O)[C@@H](NC(=O)CCc1cn(CCCNC(=O)CCC#Cc2ccc3c(c2)C(C)(C)C2=C4C=C5C6=[N+](CCC5OC4CCN23)c2ccc(S(=O)(=O)[O-])cc2C6(C)C)nn1)C1CCNCC1)C(=O)N[C@@H](CCCNC(=N)N)C(=O)N1CCC[C@H]1C(=O)N[C@H](C(=O)N[C@H](C(=O)N[C@@H](CC(C)C)C(=O)O)[C@@H](C)CC)C(C)(C)c1ccc(O)cc1 (some centres unmarked)
Ans: 82

Q: Output remaining at 24 h, 80 μM of `CCC(=O)NCCCCNC(=O)N=C(N)NCCC[C@H](NC(=O)[C@@H]1CCCN1C(=O)[C@@H](NC(=O)CCc1cn(CCCNC(=O)c2ccc(-c3c4ccc(=[N+](C)C)cc-4oc4cc(N(C)C)ccc34)c(C(=O)[O-])c2)nn1)C1CCNCC1)C(=O)N[C@@H](CCCNC(=N)N)C(=O)N1CCC[C@H]1C(=O)N[C@@H](Cc1ccc(O)cc1)C(=O)N[C@H](C(=O)N[C@@H](CC(C)C)C(=O)O)[C@@H](C)CC`
Ans: 86

====

testName: Stability in human plasma/PBS 1:2 v/v
Type: in vitro ADME
protocolConditions: human blood plasma/PBS 1:2 v/v, pH 7.4, 37 °C, 2 h, read-out: % intact compound in plasma
metric: remaining at 2 h, 80 μM (%)
Just the number in %, nothing appended.

Q: Specify measured remaining at 2 h, 80 μM for CCC(=O)NCCCCNC(=O)NC(=N)NCCC[C@H](NC(=O)[C@@H]1CCCN1C(=O)[C@@H](NC(=O)CCc1cn(CCCNC(=O)CCC#Cc2ccc3c(c2)C(C)(C)C2=C4C=C5C6=[N+](CCC5OC4CCN23)c2ccc(S(=O)(=O)[O-])cc2C6(C)C)nn1)C1CCNCC1)C(=O)N[C@@H](CCCNC(=N)N)C(=O)N1CCC[C@H]1C(=O)N[C@H](C(=O)N[C@H](C(=O)N[C@@H](CC(C)C)C(=O)O)[C@@H](C)CC)C(C)(C)c1ccc(O)cc1 (some centres unmarked) [Compound 18] .
Ans: 95
